# PROTOCOL NOTES: Cell Viability - LYMP2-002 (AID 977);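 also: compound exposure lasted 24 h at 37 °C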
# MEASUREMENT CONDITIONS: LYMP2-002 lymphoblastoid cell viability, qHTS; series mostly up to 92.2 µM
Results filed as inconclusive are left out. The source made the active and inactive calls. Calls follow the shape of the dose curve; as a rule, active = well fitted cell-killing curve with a large enough effect; inconclusive = small, poorly fitted or top-dose-only effect; inactive = flat fitted curve, though single readings scatter.
Pick one: active, inactive

Known results for compounds:
| STRUCTURE SMILES | QUALITATIVE LABEL |
| --- | --- |
| Cc1ccc2ccccc2c1 | inactive |
| NC(=S)Nc1ccccc1 | inactive |
| O=C=NC1CCCCC1 | inactive |

query: What did the test return for Brc1ccc(Oc2cc(Br)c(Br)cc2Br)c(Br)c1 ?
result: inactive

query: What did the test return for C[N+](C)(C)Cc1ccccc1 ?
result: inactive

query: What did the test return for COc1ccc(C=O)cc1OC ?
result: inactive

query: What did the test return for COP(=S)(OC)Oc1ccc([N+](=O)[O-])cc1 ?
result: inactive

query: What did the test return for c1ccc(N=Nc2ccccc2)cc1 ?
result: inactive

query: What did the test return for Cc1ccc([N+](=O)[O-])cc1C ?
result: inactive

query: What did the test return for CCCCOCCOP(=O)(OCCOCCCC)OCCOCCCC ?
result: inactive

query: What did the test return for Clc1cccc(C(Cl)(Cl)Cl)n1 ?
result: inactive

query: What did the test return for Brc1ccccc1 ?
result: inactive

query: What did the test return for O=C1C(Cl)=C(Cl)C(=O)C(Cl)=C1Cl ?
result: active

query: What did the test return for ClC(Cl)=C(Cl)C(Cl)=C(Cl)Cl ?
result: inactive

meta.source: PubChem BioAssay (NCATS)
